# Tested on: IGROV1 ovarian
# Experimental protocol: NCI tumour cell line growth inhibition, 48 h
Observation type: TGI

Sample records with TGI:
{"columns": ["Compound", "TGI"],
 "data": [
  ["CCCn1c(=O)c(N2CCN(c3ccccc3)CC2)nc2sc3ccccc3c21", "> 100 µM"],
  ["O=C(O)c1ccccc1N=Nc1c(O)c(S(=O)(=O)O)cc2cc(S(=O)(=O)O)ccc12", "> 100 µM"],
  ["Cc1cc(C)c(C2CNCc3cc4c(cc32)CNCC4c2c(C)cc(C)cc2C)c(C)c1 (centres undefined)", "18 µg/mL"],
  ["O=c1[nH]c2nc3ccccc3c(=O)n2/c1=C/c1ccco1", "> 100 µM"]
]}

Form: compound = N#Cc1nc(C#N)n(S(=O)(=O)c2ccccc2)c1NS(=O)(=O)c1ccccc1 ; TGI = > 100 µM

Form: compound = Cc1cnc2c(c1C)C(=O)c1ccccc1C2=O ; TGI = > 100 µM

Form: compound = c1ccc2c(c1)CCc1c-2n[nH]c1-c1[nH]nc2c1CCc1ccccc1-2 ; TGI = > 100 µM

---

Recorded TGI values for a group of compounds are listed next.
# Test system: NCI-H522 lung
# Experimental protocol: NCI tumour cell line growth inhibition, 48 h

Form: compound = CC1CC(C#N)=C2NCCN2C1=O (stereo not given) ; TGI = > 100 µM

Form: compound = COc1cc(C2(C)SCCCS2)cc(OC)c1OC ; TGI = > 100 µM

Form: compound = CC1=C(CC2C(=O)N(c3ccccc3)S(=O)(=O)NC2C)C(=O)N(c2ccccc2)S(=O)(=O)N1C (stereo not given) ; TGI = > 100 µM

Form: compound = CC(=O)OCC1OC(OCCCOP(=S)(OCCC#N)OCC2OC(n3ccc(N)nc3=O)C(OC(=O)c3ccccc3)C2OC(=O)c2ccccc2)C(OC(C)=O)C(OC(C)=O)C1OC(C)=O (stereo not given) ; TGI = > 100 µM

Form: compound = CCOC(=O)C1Nc2ccccc2[C@H]2OCC[C@@H]12 (stereo not given in full) ; TGI = > 100 µM

Form: compound = O=C1OC(=O)c2c1c(-c1ccccc1)nc1ccccc21 ; TGI = > 100 µM

Form: compound = NC(Cc1ccc(S(=O)(=O)O)cc1)C(=O)NC(Cc1ccc(S(=O)(=O)O)cc1)C(=O)NC(Cc1ccc(S(=O)(=O)O)cc1)C(=O)NC(Cc1ccc(S(=O)(=O)O)cc1)C(=O)O (stereo not given) ; TGI = > 100 µM

---

# Tested on: LXFL 529 NSCLC
# Experimental protocol: NCI tumour cell line growth inhibition, 48 h
Recorded TGI values for a group of molecules are listed next.

Sample records with TGI:
{"columns": ["Molecule", "Result"],
 "data": [
  ["O=C(O)CCNS(=O)(=O)c1ccc([N+](=O)[O-])cc1", "> 100 µM"],
  ["CC1=C(C(=O)Nc2ccc(Cl)c(Cl)c2)C(c2ccc([N+](=O)[O-])cc2)C(C(=O)Nc2ccc(Cl)c(Cl)c2)=C(C)N1", "11.8 µM"],
  ["O=C1CCCC/C1=C\\c1ccc(Cl)c(Cl)c1", "31.2 µM"]
]}

Then there is this molecule:
Form: molecule = O=C(c1ccccc1)c1c(CC(O)c2ccncc2)n(C(=O)c2ccccc2)c2ccccc12 (centres undefined) ; TGI = 45.9 µM
